- System: T1, CRBN, Q96SW2;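 note: pooled lentiviral library of zinc finger degron-EGFP fusions in mCherry-positive Jurkat cells, FACS-sorted after compound exposure, with degron abundance counted by next-generation sequencing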
- T1 chain: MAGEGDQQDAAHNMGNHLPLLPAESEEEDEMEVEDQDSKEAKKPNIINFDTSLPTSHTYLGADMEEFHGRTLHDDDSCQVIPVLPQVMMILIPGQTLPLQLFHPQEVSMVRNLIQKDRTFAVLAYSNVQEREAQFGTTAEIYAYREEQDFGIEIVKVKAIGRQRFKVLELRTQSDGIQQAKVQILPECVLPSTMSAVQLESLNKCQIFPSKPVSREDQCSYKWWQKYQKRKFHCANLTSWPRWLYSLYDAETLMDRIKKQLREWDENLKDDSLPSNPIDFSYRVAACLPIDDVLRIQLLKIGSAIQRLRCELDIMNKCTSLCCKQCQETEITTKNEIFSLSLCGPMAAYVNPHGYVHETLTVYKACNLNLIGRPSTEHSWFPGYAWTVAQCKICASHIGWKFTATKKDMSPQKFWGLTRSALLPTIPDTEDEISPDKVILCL
- Assay remarks: log2 fold change of degron read counts, EGFP-low vs EGFP+ sorted cells (limma voom), compound-induced degradation; higher = more compound-induced degradation of the degron-EGFP fusion; degrons are variants of IKZF1/3 zinc finger 2; compound dose not given here
- Reported conditions: Jurkat; 18 h; compound: compound 19 (5-tert-butyl-thalidomide)
In all, about 8,300 sequences were measured (“log2 fold change of degron read counts, EGFP-low vs EGFP+ sorted cells (limma voom), compound-induced degradation”: median about -1.1, highest 2% from about 3.2 on). Only a selection was taken, and the highest values are over-represented in it overall.
log2 fold change of degron read counts by entry:
Readout kind: log2 fold change of degron read counts

INSERT INTO assay_data (record_sequence, endpoint_value) VALUES
  ('FGCPVCGARFTQKGNLLRHIKL [46F_47G_49P_50V_52G_53A_54R_55F_67L_, Q9UKT9]', 3.6),
  ('FTCEVCGAKFTQKGNLLRHIKL [46F_47T_49E_50V_52G_53A_54K_55F_67L_, Q9UKT9]', 0.575),
  ('FQCNVCGAYFTQKGNLLRHIKL [46F_47Q_49N_50V_52G_53A_54Y_55F_67L_, Q9UKT9]', -2.25),
  ('FICEQCGANFTQKGNLLRHIKL [46F_47I_49E_50Q_52G_53A_54N_55F_67L_, Q9UKT9]', -2.09),
  ('FRCEVCGACFTQKGNLLRHIKL [46F_47R_49E_50V_52G_53A_54C_55F_67L_, Q9UKT9]', -0.334),
  ('FSCNVCGAPFTQKGNLLRHIKL [46F_47S_49N_50V_52G_53A_54P_55F_67L_, Q9UKT9]', 0.819),
  ('FVCEICGRLFTQKGNLLRHIKL [46F_47V_49E_50I_52G_53R_54L_55F_67L_, Q9UKT9]', -1.71),
  ('FFCNVCGAYFTQKGNLLRHIKL [46F_47F_49N_50V_52G_53A_54Y_55F_67L_, Q9UKT9]', -0.163),
  ('FACEICGHVFTQKGNLLRHIKL [46F_47A_49E_50I_52G_53H_54V_55F_67L_, Q9UKT9]', -2.8),
  ('LFCPICGFYCTQKGNLLRHIKL [46L_47F_49P_50I_52G_53F_54Y_55C_67L_, Q9UKT9]', 2.88),
  ('LDCPICGFYCTQKGNLLRHIKL [46L_47D_49P_50I_52G_53F_54Y_55C_67L_, Q9UKT9]', -0.0305),
  ('FMCEVCGACFTQKGNLLRHIKL [46F_47M_49E_50V_52G_53A_54C_55F_67L_, Q9UKT9]', -0.094),
  ('FECDQCGANFTQKGNLLRHIKL [46F_47E_49D_50Q_52G_53A_54N_55F_67L_, Q9UKT9]', -3.58),
  ('FFCPVCGALFTQKGNLLRHIKL [46F_47F_49P_50V_52G_53A_54L_55F_67L_, Q9UKT9]', 1.62),
  ('FLCPVCGARFTQKGNLLRHIKL [46F_47L_49P_50V_52G_53A_54R_55F_67L_, Q9UKT9]', -0.179),
  ('FKCSVCGHMFTQKGNLLRHIKL [46F_47K_49S_50V_52G_53H_54M_55F_67L_, Q9UKT9]', -3.17),
  ('FRCPVCGARFTQKGNLLRHIKL [46F_47R_49P_50V_52G_53A_54R_55F_67L_, Q9UKT9]', -1.26),
  ('FVCEVCGACFTQKGNLLRHIKL [46F_47V_49E_50V_52G_53A_54C_55F_67L_, Q9UKT9]', -0.0594),
  ('FLCEVCGACFTQKGNLLRHIKL [46F_47L_49E_50V_52G_53A_54C_55F_67L_, Q9UKT9]', 0.437),
  ('FVCPVCGALFTQKGNLLRHIKL [46F_47V_49P_50V_52G_53A_54L_55F_67L_, Q9UKT9]', -1.75),
  ('FFCNQCGHGFTQKGNLLRHIKL [46F_47F_49N_50Q_52G_53H_54G_55F_67L_, Q9UKT9]', -2.03),
  ('FSCPICGRAFTQKGNLLRHIKL [46F_47S_49P_50I_52G_53R_54A_55F_67L_, Q9UKT9]', -0.662),
  ('FQCNQCGREFTQKGNLLRHIKL [46F_47Q_49N_50Q_52G_53R_54E_55F_67L_, Q9UKT9]', -3.47),
  ('FRCDICGAHFTQKGNLLRHIKL [46F_47R_49D_50I_52G_53A_54H_55F_67L_, Q9UKT9]', -1.41),
  ('LCCPICGFYCTQKGNLLRHIKL [46L_47C_49P_50I_52G_53F_54Y_55C_67L_, Q9UKT9]', 1.68),
  ('FVCNQCGRWFTQKGNLLRHIKL [46F_47V_49N_50Q_52G_53R_54W_55F_67L_, Q9UKT9]', -2.52),
  ('FCCPVCGADFTQKGNLLRHIKL [46F_47C_49P_50V_52G_53A_54D_55F_67L_, Q9UKT9]', 0.844),
  ('FTCPVCGARFTQKGNLLRHIKL [46F_47T_49P_50V_52G_53A_54R_55F_67L_, Q9UKT9]', 0.934),
  ('FQCPVCGADFTQKGNLLRHIKL [46F_47Q_49P_50V_52G_53A_54D_55F_67L_, Q9UKT9]', -0.246);

Cited source for all entries: the supplement of paper PMC12645437
